Ref: PubChem BioAssay (NCI)

system: NCI-H23 lung; experiment: NCI tumour cell line growth inhibition, 48 h
reported.property: TGI

CC(C)c1cc2c(O)c(c1)Cc1cc(C(C)C)cc(c1O)Cc1cc(C(C)C)cc(c1O)Cc1cc(C(C)C)cc(c1O)Cc1cc(C(C)C)cc(c1O)Cc1cc(C(C)C)cc(c1O)C2	> 100 µM
O=C(NC(Cc1c[nH]c2ccccc12)C(=O)O)/C(=C/c1ccccc1)NC(=O)c1ccccc1 (centres undefined)	> 100 µM
Cc1cc(C#Cc2ccccc2)ccc1-n1c(/C=C/c2ccc(O)cc2)nc2ccccc2c1=O	> 100 µM
CC(C)(C)c1ccc(C(O)(c2ccc(C(C)(C)C)cc2)c2ccc(C(C)(C)C)cc2)cc1	> 100 µM
Cc1ccc(NC(=O)CCC(=O)C(C#N)c2ccc(Cl)cc2)cc1C (centres undefined)	> 100 µM

Look at each molecule and report its TGI.
1. COCCOCCOCCOCCOc1ccc2c(c1)C(=O)c1nc3ncccc3c(=O)n1-2
2. Nc1ncc(Cc2nn3c(COc4ccc(Cl)cc4)nnc3s2)s1
3. CNc1ccc([N+](=O)[O-])cc1C(=O)N1CCC[C@H]1CO
4. CCn1c(-c2cc3ccccc3cc2OC(=O)c2ccccc2)n[nH]c1=S

1: 1.18 µM; 2: > 100 µM; 3: > 100 µM; 4: > 50 µM

====

test system: MDA-MB-231 breast; test: NCI tumour cell line growth inhibition, 48 h
Provide the recorded TGI for the entries that follow.
Give bare numbers, in µM.

Previously resolved entries follow.
CCNC1=CC(=O)c2ncccc2C1=O	21.1
COCCOCCOCCOCCOc1ccc2c(c1)C(=O)c1nc3ncccc3c(=O)n1-2	52
O=c1c2cc(Cl)ccc2n2nnc3ccc(NCCNCCO)c1c32	2.81

Look at each compound and report its TGI.
1. Cc1cc(C#Cc2ccccc2)ccc1-n1c(/C=C/c2ccc(O)cc2)nc2ccccc2c1=O
2. ClCc1ccc(Cn2cnc3ncnc(Cl)c32)cc1
3. Cc1ccc(N=Nc2cc(=O)[nH]c(=O)[nH]2)cc1C
4. COc1ccc(/C=C(\C#N)c2nc(-c3cc4ccccc4oc3=O)cs2)cc1
5. CN(C)CCCN1C(=O)N(CCCN(C)C)c2c3cc(O)ccc3nc3c([N+](=O)[O-])ccc1c23

[29.5, 3.35, 24.2, 31, 28.3]

Look at each compound and report its TGI.
1. CC(=O)Oc1ccc(-c2c(OC(C)=O)c(OC(C)=O)c(-c3ccc(OC(C)=O)c(OC(C)=O)c3)c(OC(C)=O)c2OC(C)=O)cc1
2. CC(C)=CCC[C@](C)(O)[C@H]1CC[C@]2(C)[C@@H]1CC[C@@H]1[C@@]3(C)CC[C@H](OC(=O)CCC(=O)O)C(C)(C)[C@@H]3CC[C@]12C

35.4
87.5

====

tested on: MOLT-4 leukemia; test: NCI tumour cell line growth inhibition, 48 h
reported.property: TGI (µM)
Give bare numbers, in µM.

Previously resolved entries follow.
Clc1cccc(C2SCc3nc4ccccc4n32)c1Cl (stereo unspecified)	41.9
Oc1cc(Br)cc2cc(Br)cnc12	16.1

What value of TGI has been recorded for this entry: O=c1c2cc(Cl)ccc2n2nnc3ccc(NCCNCCO)c1c32 6.59

====

tested on: HL-60(TB) leukemia; test: NCI tumour cell line growth inhibition, 48 h
Provide the recorded TGI for the entries that follow.

Cc1cc2nnn(C3CCCO3)c2cc1C (configuration not stated)	> 100 µM
CN(C)/C(=N/C(=O)Nc1ccccc1)SCc1ccccc1	> 100 µM
CCCC/C(C)=N/NC(N)=S	> 100 µM

Look at each compound and report its TGI.
1. Cc1cc(I)cc(CN(C)CCCCN2CCCC2)c1O
2. O=C(O)C(O)C(O)C1[O][Sb][O]C1CO (configuration not stated)

35.2 µM
> 100 µM

====

test system: 786-0 renal; experiment: NCI tumour cell line growth inhibition, 48 h
Provide the recorded TGI for the entries that follow.
Numbers only, in µM.

Oc1cc(Br)cc2cc(Br)cnc12	71.1
C[C@@H]1CC2(N=CCS2)[C@]2(O)O[C@@H]3C[C@@]4(C)[C@H](C[C@H]3O[C@@H]2O1)C[C@H]1O[C@]12[C@@H]4[C@H](O)C(=O)[C@]1(C)C(C3=CC(=O)OC3)CC[C@]21O (some centres undefined)	0.0179
C=C1C(=O)O[C@H]2[C@H](OC(C)=O)[C@@H](C)CCC/C(C)=C/CC[C@]3(CO3)[C@H](O)C[C@@H]12	14.1
COc1cc(/C=C/C=C2\CC(C)C/C(=C\C=C\c3ccc(O)c(OC)c3)C2=O)ccc1O (centres undefined)	47.9

Next:
What value of TGI has been recorded for this entry: CC1=CC(=O)c2[nH]c3ccccc3c2C1=O 7.71

====

system: HCC-2998 colon; assay: NCI tumour cell line growth inhibition, 48 h
reported.property: log10 of TGI (log10 of the value in µM)
Please be aware that the numbers have been log10-transformed from TGI in µM.

Look at each molecule and report its log10 of TGI.
1. C[C@@H]1CC2(N=CCS2)[C@]2(O)O[C@@H]3C[C@@]4(C)[C@H](C[C@H]3O[C@@H]2O1)C[C@H]1O[C@]12[C@@H]4[C@H](O)C(=O)[C@]1(C)C(C3=CC(=O)OC3)CC[C@]21O (stereo not given in full)
2. Cc1cc(I)cc(CN(C)CCCCN2CCCC2)c1O
3. C=C1C(=O)O[C@H]2[C@@H](O)[C@H](C)CCC/C(C)=C/CC[C@@]3(C)O[C@@H]3C[C@@H]12
4. CCOc1cc(C=Nc2ccc(Oc3ccc(Cl)cc3)c(Cl)c2)ccc1O

[-1.14, 1.56, 1.41, 1.64]

Look at each molecule and report its log10 of TGI.
1. Cc1cc(C(C)(C)C)c(OCCCN2CCOCC2)c(C(C)(C)C)c1
2. OCC1=C[C@@](COCc2ccccc2)(OCc2ccccc2)[C@@H](OCc2ccccc2)[C@@H]1OCc1ccccc1
3. Cc1cc(C#Cc2ccccc2)ccc1-n1c(/C=C/c2ccc(O)cc2)nc2ccccc2c1=O
4. CC1=C[C@H]2C[C@@]3(C)O[C@@H]([C@]4(C)CC[C@H]([C@@H](C)C(=O)O)OO4)CC3C(C)(C)[C@H]2CC1 (stereo not given in full)

1: 1.48; 2: 1.51; 3: 0.87; 4: 0.36

====

tested on: RXF-631 renal; assay: NCI tumour cell line growth inhibition, 48 h
Provide the recorded TGI for the entries that follow.

Look at each molecule and report its TGI.
1. C[C@@H]1CC2(N=CCS2)[C@]2(O)O[C@@H]3C[C@@]4(C)[C@H](C[C@H]3O[C@@H]2O1)C[C@H]1O[C@]12[C@@H]4[C@H](O)C(=O)[C@]1(C)C(C3=CC(=O)OC3)CC[C@]21O (stereo partly drawn)
2. Cc1cc(Br)cc(C)c1NC(=O)C(=O)C(C(=O)c1ccc(Cl)c(Cl)c1)C1OC(=O)c2ccccc21 (stereo not drawn)
3. O=C1C=Cc2noc3cccc1c23
4. C[Si](C)(C)[C@@]1([Se]c2ccccc2)CC[C@@H]1C(=O)c1ccccc1
5. Cc1nc(Nc2ccc([N+](=O)[O-])cc2)sc1C(=O)/C=C/c1ccc(N(C)C)cc1

["0.102 µM", "> 100 µM", "27.9 µM", "> 100 µM", "> 100 µM"]

====

system: UO-31 renal; assay: NCI tumour cell line growth inhibition, 48 h
reported.property: TGI (µM)
One number for each entry, in µM.

Look at each molecule and report its TGI.
1. O=c1c2cc(Cl)ccc2n2nnc3ccc(NCCNCCO)c1c32
2. COc1ccccc1OCC(COC(=O)Nc1ccc(C)cc1)OC(=O)Nc1ccc(C)cc1 (stereo not given)

[3.49, 34.3]

Look at each molecule and report its TGI.
1. COc1cccc2c1C(=O)c1c(O)c3c(c(O)c1C2=O)C[C@](O)(C(=O)CO)CC3OC1CC(N)C(OC2CCCCO2)C(C)O1 (stereo not given in full)
2. NC(=O)c1ccc(-c2c3ccccc3cc3c2ccc2ccccc23)cc1

1. 3.63
2. 39.5

====

test system: SK-MEL-5 melanoma; assay: NCI tumour cell line growth inhibition, 48 h
Provide the recorded TGI for the entries that follow.

C1CCN2CC34CC(CC5CCCN(C6CCCC3N6)C54)C2C1 (stereo not given)	> 100 µM

Look at each compound and report its TGI.
1. CC1=CC(=O)c2[nH]c3ccccc3c2C1=O
2. CC(Cl)CC(=O)Nc1ccc2c(c1)oc(=O)c1cc(NC(=O)CC(C)Cl)ccc12 (stereo not given)
3. OCC1CC2CC1C1(C2)OCCO1 (stereo not given)
4. CC(C)c1cc2c(O)c(c1)Cc1cc(C(C)C)cc(c1O)Cc1cc(C(C)C)cc(c1O)Cc1cc(C(C)C)cc(c1O)Cc1cc(C(C)C)cc(c1O)Cc1cc(C(C)C)cc(c1O)C2

7.66 µM
27.9 µM
> 100 µM
> 100 µM
